- Tested On: T1, GST-fused lamin 250 to 400 fragment (human lamin A/C residues 250-400) (human, UniProt P02545 250-400)
- T1 construct: human lamin A/C, residues 250-400: most of coil 2 (242-385) and a C-terminal flanking region (386-400); also called GST-lamin coil 250-400; lamin C-terminal 250 to 400 fragment; source: E. coli, purified (glutathione-agarose, HiTrap Q, desalting); not shown: GST, N-terminal, kept
- T1 sequence (looked up): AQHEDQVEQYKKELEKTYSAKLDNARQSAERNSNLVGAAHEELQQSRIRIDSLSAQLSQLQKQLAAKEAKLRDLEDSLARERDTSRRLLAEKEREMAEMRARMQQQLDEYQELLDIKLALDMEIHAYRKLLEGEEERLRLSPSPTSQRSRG
- Protocol Summary: pull-down; GST-fused coil 2C fragment (5 μM) on GSH-agarose resin with lamin N-terminal fragments (20 μM); 20 mM Tris-HCl pH 7.5, 50 mM NaCl, 1 h at room temperature; eluted with 20 mM GSH; SDS-PAGE or Phos-tag SDS-PAGE
- Experimental Parameters: both partners purified

Binder	binding result
lamin 1 to 125 fragment T19A (domain or fragment, human, UniProt P02545 1-125, looked up) METPSQRRATRSGAQASSAPLSPTRITRLQEKEDLQELNDRLAVYIDRVRSLETENAGLRLRITESEEVVSREVSGIKAAYEAELGDARKTLDSVAKERARLQLELSKVREEFKELKARNTKKEG	binds
WT lamin 1 to 125 fragment (human lamin A/C, residues 1-125) (domain or fragment, UniProt P02545 1-125, looked up) METPSQRRATRSGAQASSTPLSPTRITRLQEKEDLQELNDRLAVYIDRVRSLETENAGLRLRITESEEVVSREVSGIKAAYEAELGDARKTLDSVAKERARLQLELSKVREEFKELKARNTKKEG	binds
